# Tested on: ICS
# Assay remarks: qHTS profiling for inhibitors of Plasmodium falciparum proliferation (AID 504749); further: nearly all actives have a fitted effect of over 60% in size; further: potency means the concentration at half of the fitted maximal effect
# Measurement parameters: P. falciparum in erythrocytes, SYBR Green DNA, 72 h; series mostly up to 28.7 µM
Results filed as inconclusive are left out. Calls of active or inactive are those of the source. The call rests on the fitted dose curve; in most records, active means well fitted inhibition curve with a large enough effect; inconclusive means small, poorly fitted or top-dose-only effect; inactive means flat fitted curve, though single readings scatter.
Measurement label: Potency

The following compounds have reported results that may help.
What the record says about CN(C)CCC[C@@]1(c2ccc(F)cc2)OCc2cc(C#N)ccc21 : Potency is inactive

Lab note: measured Potency of COc1cc(O)c(C(=O)c2ccccc2)cc1S(=O)(=O)O was 3550 nM (active)

According to the records, this compound Cc1nc(-c2ccc(Cl)cc2)oc1COC(C)(C)C(=O)O displays Potency of inactive

Measured Potency of N#CCC(=O)NN : inactive

Entry CCCCC(CC)COC(=O)c1ccc(N(C)C)cc1 (stereo not drawn) , Potency reported as inactive

Continuing:
# compound CC(=O)Oc1ccc(C)cc1 ; its Potency = inactive

Briefly, Potency measured for CC(=O)Nc1ccc(CC(=O)O)cc1 : inactive

Reported Potency ( CCCCCCCCCCCCCC(=O)OC(C)C ) = inactive

Reported Potency ( O=C(Nc1ccc([N+](=O)[O-])cc1)Nc1ccc([N+](=O)[O-])cc1 ) = 2000 nM (active)

Lab book: Potency of CCCCCN=C(N)N/N=C/c1c[nH]c2ccc(OC)cc12 noted as 1260 nM (active)

Short answer for Cc1ncc(CO)c(C=O)c1O : Potency was inactive

The compound listed as CCCN(CCc1cccs1)[C@H]1CCc2c(O)cccc2C1 shows Potency equal to 794 nM (active)

The recorded Potency for entry Cc1cc(CC(=O)O)c(C)n1-c1ccc(Cl)cc1 equals 8910 nM (active)

* * *

# Test system: AA1029
# Assay remarks: qHTS profiling for inhibitors of Plasmodium falciparum proliferation (AID 504749); further: nearly all actives have a fitted effect of over 60% in size
# Measurement parameters: P. falciparum in erythrocytes, SYBR Green DNA, 72 h; series mostly up to 28.7 µM
Inconclusive results are not listed. Calls of active or inactive are those of the source. Calls follow the shape of the dose curve; as a rule, active = well fitted inhibition curve with a large enough effect; inconclusive = small, poorly fitted or top-dose-only effect; inactive = flat fitted curve, though single readings scatter.
Hi! Could you answer with just one of these? active, inactive

In: What classification did O=C(Nc1ncc([N+](=O)[O-])s1)c1cccs1 end up with in this test?
Out: inactive

In: Outcome? CC(=O)Oc1ccc(C)cc1
Out: inactive

In: // param item: C[N+]1(C)CCC(=C(c2ccccc2)c2ccccc2)CC1 ; yields the recorded call
Out: inactive

***
In: Could you please tell me the result logged for O=C(O)CCNC(=O)c1ccccc1 in this assay?
Out: inactive

In: Which outcome was entered for the molecule CN(CCCN1c2ccccc2CCc2ccccc21)CC(=O)c1ccc(Cl)cc1 in this test?
Out: active

In: Lab log entry: CCCc1ncc(C[n+]2ccccc2C)c(N)n1 — outcome as called in the assay?
Out: inactive

In: Please indicate how the test categorized CC[C@H](c1ccc(O)cc1)[C@@H](CC)c1ccc(O)cc1 .
Out: inactive

In: Lab log entry: Cc1ccc(S(=O)(=O)NC(=O)NC2CCCC2)cc1 — outcome as called in the assay?
Out: inactive

* * *

Entries and their measured max response follow.
# System: NIH3T3
# Assay remarks: Cytotoxic Profiling of Annotated Libraries Using Quantitative High-Throughput Screening (AID 1296008); further: on the % scale 0 is the no-effect control and ±100 the full control effect; nearly all actives have a fitted effect of over 60% in size
# Measurement parameters: Five cell lines viability, CellTiter-Glo ATP luminescence, 48-72 h; hits give low values
Records with an inconclusive call do not appear.
Dear colleague, please return just the value in %, with no unit written.

Recorded max response (compound N#C/C(=C1\SCC(c2ccccc2Cl)S1)n1ccnc1 (stereo unspecified) ): -9.88

Record summary for CCN(CC)CCOc1ccccc1C(=O)CCc1ccccc1 : reported max response = -3.4

So, CCCCCCCCCCCCCCCCO ? Its max response was -5.1

Others:
Recorded result, COc1ccc(C(Cl)=C(c2ccc(OC)cc2)c2ccc(OC)cc2)cc1 , max response: -2.4

Summary for this compound, Cc1cc(-c2ccccc2)nnc1NCCN1CCOCC1 : max response is -3.42

Lab book: max response of C=C[C@H]1CN2CC[C@H]1C[C@@H]2[C@@H](O)c1ccnc2ccc(OC)cc12 noted as 1.59

* * *

# System: CASKI
# Assay remarks: Primary qHTS to identify gynecologic anti-cancer compounds using libraries of approved drugs and bioactive compounds (AID 1345084); further: on the % scale 0 is the no-effect control and ±100 the full control effect; nearly all actives have a fitted effect of over 55% in size
# Measurement parameters: Gynecologic cancer cell panel viability, ATPlite luminescence, 48 h; series mostly up to 57.5 µM
# Description: National Center for Advancing Translational Sciences [NCATS] Assay Overview: Chemotherapeutic drug responses vary from cancer to cancer and from patient to patient. […] ATPlite is a luminescence based assay reliant on the conversion of a luciferase substrate to light in the presence of ATP. As a cytotoxic compound will suppress growth and decrease the number of cells, the concentration of ATP will decrease, and less light signal will be detected in the well. […]
Inconclusive results are not listed. The source made the active and inactive calls. The call rests on the fitted dose curve; in most records, active means well fitted cell-killing curve with a large enough effect; inconclusive means small, poorly fitted or top-dose-only effect, or effect the other way; inactive means flat fitted curve, though single readings scatter.
Measurement label: Potency

For CC[C@H](c1ccc(O)cc1)[C@@H](CC)c1ccc(O)cc1 the molecule record lists Potency as inactive

The value of Potency measured for the molecule CC(=O)NCCCCCC(=O)O turned out to be inactive

Lab note: measured Potency of Cc1cc(CC(=O)O)c(C)n1-c1ccc(Cl)cc1 was inactive

# Potency (molecule: O=C1c2cccc3c2[C@H](CCC3)CN1[C@@H]1CN2CCC1CC2 ) is inactive

Next:
Entry COc1cc(C)nc(-n2nc(C)cc2OC)n1 ; Potency = inactive

Record N#C/C(=C1\SCC(c2ccccc2Cl)S1)n1ccnc1 (stereo not drawn) . Reported Potency: inactive

Lab note: CCOc1ccc(NC(C)=O)cc1 gave Potency of inactive

For this molecule ( CCCCCCCCCCCCSCCOCCO ), measured Potency is inactive

// Potency value for Cc1cc(C)cc(OCC2CNC(=O)O2)c1 (stereo not drawn) : inactive

* * *

# Tested on: WaGa
# Assay remarks: qHTS assay to identify novel small-molecules to repurpose for Merkel cell carcinoma treatment (AID 1296009); further: nearly all actives have a fitted effect of over 60% in size; further: potency means the concentration at half of the fitted maximal effect
# Measurement parameters: MCC and control cell lines, CellTiter-Glo viability, 72 h; series mostly up to 46 µM
Records with an inconclusive call do not appear. The source made the active and inactive calls. The call rests on the fitted dose curve; in most records, active means well fitted inhibition curve with a large enough effect; inconclusive means small, poorly fitted or top-dose-only effect; inactive means flat fitted curve, though single readings scatter.
Measurement label: Potency

Reference set (4 entries):
The recorded Potency for entry O=c1[nH]c(=O)n([C@H]2C[C@H](O)[C@@H](CO)O2)cc1F equals 0.0335 µM (active)

The compound listed as NS(=O)(=O)Cc1noc2ccccc12 shows Potency equal to inactive

COc1ccc(CN(CCN(C)C)c2ncccn2)cc1 has a reported Potency of inactive

Entry O=C(N/N=C/c1ccc([N+](=O)[O-])o1)c1ccc(O)cc1 , Potency reported as 10.6 µM (active)

New cases:
// sample Cc1cccc(C)c1NC(=O)CN1CCCCCC1 , its Potency was inactive

* * *

# Assay remarks: qHTS of pediatric cancer cell lines to identify multiple opportunities for drug repurposing: Primary screen for SK-N-MC cells (AID 1347093)
# Measurement parameters: SK-N-MC viability, CellTiter-Glo luminescence, 48 h; series mostly up to 46 µM
# Protocol: Drug repurposing or repositioning has been offered as a strategy for drug development in oncology programs. […] [1] Shen, M et al. Quantitative high-throughput phenotypic screening of pediatric cancer cell lines identifies multiple opportunities for drug repurposing. […] Cells were assayed in growth media at a density of 500-1,000 cells/well. […] After a 15 min incubation at room temperature, samples were analyzed for luminescence intensity using a ViewLux High-throughput CCD imager equipped with clear filters.
Results filed as inconclusive are left out. The source made the active and inactive calls. Calls come from the whole dose curve; as a rule, active = well fitted cell-killing curve with a large enough effect; inconclusive = small, poorly fitted or top-dose-only effect; inactive = no such curve, though single readings can be large or run the other way.
Choose the fitting class; nothing outside active, inactive is accepted.

In: Could you check what this test reported for CN(CCCN1c2ccccc2CCc2ccccc21)CC(=O)c1ccc(Cl)cc1 ?
Out: inactive

In: Entry CC1(COc2ccc(CC3SC(=O)NC3=O)cc2)CCCCC1 (configuration not stated) : call = ?
Out: inactive

In: Fill in: this test's call for CC(=O)OC[C@H]1O[C@@H](n2ncc(=O)[nH]c2=O)[C@H](OC(C)=O)[C@@H]1OC(C)=O is ___
Out: active

In: Each molecule tested received a call. Report the one for O=C(CCN1CCN2CCCC2C1)N1c2ccccc2Sc2ccc(Cl)cc21 (configuration not stated) .
Out: inactive

In: For NC(=S)N/N=C/c1cccnc1 , what call appears in the results of this test?
Out: inactive

---
In: # outcome recorded in this test, key = NS(=O)(=O)c1cc(C(=O)O)cc(N2CCCC2)c1Oc1ccccc1
Out: inactive

In: Would you mind telling me which call this test gave COc1ccc(/C=N/NC(=O)c2ccncc2)cc1OC ?
Out: inactive

* * *

# Assay remarks: Cell Viability - LYMP2-006 (AID 978)
# Measurement parameters: LYMP2-006 lymphoblastoid cell viability, qHTS; series mostly up to 92.2 µM
Records with an inconclusive call do not appear. Calls of active or inactive are those of the source. The call rests on the fitted dose curve; in most records, active means well fitted cell-killing curve with a large enough effect; inconclusive means small, poorly fitted or top-dose-only effect; inactive means flat fitted curve, though single readings scatter.
Measurement label: outcome

Solved entries (count: 5):
// field: outcome; key: C/C=C/c1ccc(O)c(OC)c1 ; value = inactive

The molecule identified as C=C[C@H]1CN2CC[C@H]1C[C@@H]2[C@@H](O)c1ccnc2ccc(OC)cc12 registered its outcome at inactive

Notebook: COc1cc([C@H]2Oc3cc([C@H]4Oc5cc(O)cc(O)c5C(=O)[C@@H]4O)ccc3O[C@@H]2CO)ccc1O , outcome read as inactive

Lab note: O=C(O)c1ccc(S(=O)(=O)N(Cl)Cl)cc1 gave outcome of inactive

The recorded outcome for COc1ccc(C(Cl)=C(c2ccc(OC)cc2)c2ccc(OC)cc2)cc1 is inactive

Next:
Form field outcome, entry CCOc1ccc(NC(C)=O)cc1 : inactive

Record summary for OC[C@H]1O[C@@H]2O[C@H]3[C@H](O)[C@@H](O)[C@@H](O[C@H]4[C@H](O)[C@@H](O)[C@@H](O[C@H]5[C@H](O)[C@@H](O)[C@@H](O[C@H]6[C@H](O)[C@@H](O)[C@@H](O[C@H]7[C@H](O)[C@@H](O)[C@@H](O[C@H]8[C@H](O)[C@@H](O)[C@@H](O[C@H]1[C@H](O)[C@H]2O)O[C@@H]8CO)O[C@@H]7CO)O[C@@H]6CO)O[C@@H]5CO)O[C@@H]4CO)O[C@@H]3CO : reported outcome = inactive

// field: outcome; key: CCCCC(CC)COC(=O)c1ccc(N(C)C)cc1 (centres undefined) ; value = inactive

molecule CCOc1ccccc1C(N)=O , outcome observed: inactive
